Each record here notes measured IC50.
- assay.target: EphA2 (Homo sapiens)
- Sequence (P29317 24-537 limits assumed, species assumed): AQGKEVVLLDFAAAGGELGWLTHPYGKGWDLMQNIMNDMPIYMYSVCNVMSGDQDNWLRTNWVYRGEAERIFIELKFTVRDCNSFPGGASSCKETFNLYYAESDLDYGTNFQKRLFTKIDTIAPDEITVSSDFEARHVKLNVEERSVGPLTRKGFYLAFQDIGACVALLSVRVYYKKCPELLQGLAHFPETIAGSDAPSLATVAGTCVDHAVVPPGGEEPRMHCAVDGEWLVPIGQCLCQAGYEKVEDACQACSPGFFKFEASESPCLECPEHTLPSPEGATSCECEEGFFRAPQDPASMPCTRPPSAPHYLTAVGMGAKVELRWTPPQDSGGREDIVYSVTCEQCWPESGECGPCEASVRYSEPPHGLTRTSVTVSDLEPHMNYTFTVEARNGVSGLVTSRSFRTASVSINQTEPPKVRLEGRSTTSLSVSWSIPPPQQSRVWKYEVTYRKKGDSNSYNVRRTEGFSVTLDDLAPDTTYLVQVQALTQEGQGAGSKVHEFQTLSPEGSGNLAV
- test.description: ELISA: inhibition of ephrin-A5 AP binding to immobilized EphA2 Fc
- Design: the immobilized EphA2 extracellular domain fused to the Fc portion of an antibody (EphA2 Fc)
- conditions: average ± SE
Non-standard residues stand in square brackets, D forms with d. Residues, ends and D or L forms follow the SMILES beside them. *: point of attachment. Biotin = O=C1N[C@H]2[C@H](CS[C@H]2CCCCC(=O)*)N1; βAla = NCCC(=O)O
Value expressed in nM; do not type the unit.

- CC(C)C[C@H](NC(=O)[C@H](Cc1c[nH]c2ccccc12)NC(=O)CCN)C(=O)N[C@@H](C)C(=O)N[C@@H](Cc1ccc(O)cc1)C(=O)N1CCC[C@H]1C(=O)N[C@@H](CC(=O)O)C(=O)N[C@@H](CO)C(=O)N[C@H](C(=O)N1CCC[C@H]1C(=O)N[C@@H](Cc1ccc(O)cc1)C(=O)N[C@@H](CCCNC(=N)N)C(=O)N1CCC[C@H]1C(=O)N[C@@H](CCCCN)C(N)=O)C(C)C [βA-WLA-YRPKam]: 19

Result for CC(C)C[C@H](NC(=O)[C@H](Cc1c[nH]c2ccccc12)NC(=O)CCN)C(=O)N[C@@H](C)C(=O)N[C@@H](Cc1ccc(O)cc1)C(=O)N1CCC[C@H]1C(=O)N[C@@H](CC(=O)O)C(=O)N[C@@H](CO)C(=O)N[C@H](C(=O)N1CCC[C@H]1C(=O)N[C@@H](Cc1ccc(O)cc1)C(N)=O)C(C)C [βA-WLA-Yam] (HELM PEPTIDE1{[bAla].W.L.A.Y.P.D.S.V.P.Y.[am]}$$$$V2.0; N-terminus assumed) , tested on EphA2 (Homo sapiens), IC50: 410

Recorded IC50 for CSCC[C@H](NC(=O)[C@@H]1CCCN1C(=O)[C@@H](NC(=O)[C@H](CO)NC(=O)[C@H](CC(=O)O)NC(=O)[C@@H]1CCCN1C(=O)[C@H](Cc1ccc(O)cc1)NC(=O)[C@H](C)NC(=O)[C@H](CC(C)C)NC(=O)[C@H](Cc1c[nH]c2ccccc12)NC(=O)CCN)C(C)C)C(N)=O [βA-WLAam] (HELM PEPTIDE1{[bAla].W.L.A.Y.P.D.S.V.P.M.[am]}$$$$V2.0; N-terminus assumed) on EphA2 (Homo sapiens) was 840

Record CC(C)C[C@H](NC(=O)[C@H](Cc1c[nH]c2ccccc12)NC(=O)CCN)C(=O)N[C@@H](C)C(=O)N[C@@H](Cc1ccc(O)cc1)C(=O)N1CCC[C@H]1C(=O)N[C@@H](CC(=O)O)C(=O)N[C@@H](CO)C(=O)N[C@H](C(=O)N1CCC[C@H]1C(=O)N[C@@H](Cc1ccc(O)cc1)C(=O)NCC(=O)N[C@@H](CO)C(=O)N[C@@H](CCCCNC(=O)CCCC[C@@H]1SC[C@@H]2NC(=O)N[C@@H]21)C(=O)O)C(C)C [βA-WLA-YGSK-bio] (H-[βAla]WLAYPDSVPYGSK(Biotin)-OH; N-terminus and C-terminus assumed) has EphA2 (Homo sapiens) IC50 equal to 400

---

- test.description: Peptide solubility in PBS/H2O
- conditions: water, Solubility in H2O (mg/ml), H2O (second figure of cell)
Residues, ends and D or L forms follow the SMILES beside them.
Recorded solubility for the following compounds
Just the number in µg/mL, nothing appended.

Sample records with solubility:
* CC(C)C[C@H](NC(=O)[C@H](Cc1c[nH]c2ccccc12)NC(=O)CCN)C(=O)N[C@@H](C)C(=O)N[C@@H](Cc1ccc(O)cc1)C(=O)N1CCC[C@H]1C(=O)N[C@@H](CC(=O)O)C(=O)N[C@@H](CO)C(=O)N[C@H](C(=O)N1CCC[C@H]1C(=O)N[C@@H](Cc1ccc(O)cc1)C(=O)N[C@@H](CO)C(=O)N[C@@H](CCCCN)C(=O)O)C(C)C [βA-WLA-YSK] (HELM PEPTIDE1{[bAla].W.L.A.Y.P.D.S.V.P.Y.S.K}$$$$V2.0; N-terminus and C-terminus assumed) | 2000
* CC(C)C[C@H](NC(=O)[C@H](Cc1c[nH]c2ccccc12)NC(=O)CCN)C(=O)N[C@@H](C)C(=O)N[C@@H](Cc1ccc(O)cc1)C(=O)N1CCC[C@H]1C(=O)N[C@@H](CC(=O)O)C(=O)N[C@@H](CO)C(=O)N[C@H](C(=O)N1CCC[C@H]1C(=O)N[C@@H](Cc1ccc(O)cc1)C(=O)N[C@@H](CCCNC(=N)N)C(=O)N1CCC[C@H]1C(=O)N[C@@H](CCCCN)C(N)=O)C(C)C | 10000

Let us move to another entry and its solubility.
Query CSCC[C@H](NC(=O)[C@H](CCSC)NC(=O)[C@@H]1CCCN1C(=O)[C@@H](NC(=O)[C@H](CO)NC(=O)[C@H](CC(=O)O)NC(=O)[C@@H]1CCCN1C(=O)[C@H](Cc1ccc(O)cc1)NC(=O)[C@H](C)NC(=O)[C@H](CO)NC(=O)[C@@H](N)Cc1ccc(O)cc1)C(C)C)C(=O)N[C@@H](CO)C(=O)N[C@@H](CCCCNC(=O)CCCC[C@@H]1SC[C@@H]2NC(=O)N[C@@H]21)C(=O)O yields solubility of 10000

---

- test.description: Peptide solubility in PBS/H2O
- conditions: H2O, Solubility in H2O (mg/ml), H2O (second figure of cell)
observable: solubility (µg/mL)
Give the number; µg/mL is assumed, so skip it.

Per the record, CC(C)C[C@H](NC(=O)[C@H](Cc1c[nH]c2ccccc12)NC(=O)[C@H](C)NC(=O)[C@@H](N)CCCCNC(=O)CCCC[C@@H]1SC[C@@H]2NC(=O)N[C@@H]21)C(=O)N[C@@H](C)C(=O)N[C@@H](Cc1ccc(O)cc1)C(=O)N1CCC[C@H]1C(=O)N[C@@H](CC(=O)O)C(=O)N[C@@H](CO)C(=O)N[C@H](C(=O)N1CCC[C@H]1C(=O)N[C@@H](Cc1ccc(O)cc1)C(=O)N[C@@H](CCCNC(=N)N)C(=O)N1CCC[C@H]1C(=O)N[C@@H](CCCCN)C(N)=O)C(C)C has solubility of 10000

---

- test.description: Peptide solubility in PBS/H2O
- conditions: water, Solubility in H2O (mg/ml), H2O (second figure of cell)
# maps each entry to its solubility
Supply the numeric figure in µg/mL, leaving out any unit text.

Form: molecule = CC(C)C[C@H](NC(=O)[C@H](Cc1c[nH]c2ccccc12)NC(=O)CCN)C(=O)N[C@@H](C)C(=O)N[C@@H](Cc1ccc(O)cc1)C(=O)N1CCC[C@H]1C(=O)N[C@@H](CC(=O)O)C(=O)N[C@@H](CO)C(=O)N[C@H](C(=O)N1CCC[C@H]1C(=O)N[C@@H](Cc1ccc(O)cc1)C(=O)N[C@@H](CCCNC(=N)N)C(=O)N1CCC[C@H]1C(=O)N[C@@H](CCCCN)C(=O)O)C(C)C ; solubility = 10000

CSCC[C@H](NC(=O)[C@@H]1CCCN1C(=O)[C@@H](NC(=O)[C@H](CO)NC(=O)[C@H](CC(=O)O)NC(=O)[C@@H]1CCCN1C(=O)[C@H](Cc1ccc(O)cc1)NC(=O)[C@H](C)NC(=O)[C@H](CO)NC(=O)[C@@H](N)Cc1ccc(O)cc1)C(C)C)C(N)=O [YSA1-10am] yielded solubility of 10000

Measured solubility of CSCC[C@H](NC(=O)[C@H](CCSC)NC(=O)[C@@H]1CCCN1C(=O)[C@@H](NC(=O)[C@H](CO)NC(=O)[C@H](CC(=O)O)NC(=O)[C@@H]1CCCN1C(=O)[C@H](Cc1ccc(O)cc1)NC(=O)[C@H](C)NC(=O)[C@H](CO)NC(=O)[C@@H](N)Cc1ccc(O)cc1)C(C)C)C(=O)N[C@@H](CO)C(=O)NCC(=O)N[C@@H](CO)C(=O)NCC(=O)N[C@@H](CO)C(=O)N[C@@H](CCCCNC(=O)CCCC[C@@H]1SC[C@@H]2NC(=O)N[C@@H]21)C(=O)O : 15000

---

- assay.target: EphA2 (Homo sapiens)
- test.description: ELISA: inhibition of ephrin-A5 AP binding to immobilized EphA2 Fc
- Design: the immobilized EphA2 extracellular domain fused to the Fc portion of an antibody (EphA2 Fc)
- conditions: average ± SE
Residues, ends and D or L forms follow the SMILES beside them.
# IC50 annotations
Give your result in nM as a bare value.

The molecule CC(C)C[C@H](NC(=O)[C@H](Cc1c[nH]c2ccccc12)NC(=O)CCN)C(=O)N[C@@H](C)C(=O)N[C@@H](Cc1ccc(O)cc1)C(=O)N1CCC[C@H]1C(=O)N[C@@H](CC(=O)O)C(=O)N[C@@H](CO)C(=O)N[C@H](C(=O)N1CCC[C@H]1C(=O)N[C@@H](Cc1ccc(O)cc1)C(=O)N[C@@H](CCCNC(=N)N)C(=O)N1CCC[C@H]1C(=O)N[C@@H](CCCCN)C(=O)O)C(C)C [βA-WLA-YRPK] showed IC50 equal to 55

Recorded result, CC(C)C[C@H](NC(=O)[C@H](Cc1c[nH]c2ccccc12)NC(=O)CCN)C(=O)N[C@@H](C)C(=O)N[C@@H](Cc1ccc(O)cc1)C(=O)N1CCC[C@H]1C(=O)N[C@@H](CC(=O)O)C(=O)N[C@@H](CO)C(=O)N[C@H](C(=O)N1CCC[C@H]1C(=O)N[C@@H](Cc1ccc(O)cc1)C(=O)N[C@@H](CCCNC(=N)N)C(=O)O)C(C)C [βA-WLA-YR] (HELM PEPTIDE1{[bAla].W.L.A.Y.P.D.S.V.P.Y.R}$$$$V2.0; N-terminus and C-terminus assumed) , IC50: 390

Lab note: measured IC50 of CC(=O)NCCCC[C@H](NC(=O)[C@@H]1CCCN1C(=O)[C@H](CCCNC(=N)N)NC(=O)[C@H](Cc1ccc(O)cc1)NC(=O)[C@@H]1CCCN1C(=O)[C@@H](NC(=O)[C@H](CO)NC(=O)[C@H](CC(=O)O)NC(=O)[C@@H]1CCCN1C(=O)[C@H](Cc1ccc(O)cc1)NC(=O)[C@H](C)NC(=O)[C@H](CC(C)C)NC(=O)[C@H](Cc1c[nH]c2ccccc12)NC(=O)CCN)C(C)C)C(=O)O [βA-WLA-YRP-ack] was 82
